test-description: Analytical reversed-phase HPLC elution (hydrophobicity)
Type: physicochemical
assay-conditions: Table S1; analytical RP-HPLC, SunFire C18, water/ACN + 0.1% TFA, 5 to 100% B linear over 30 min, 1 mL/min, UV 220 nm; approximate comparison of hydrophobicity
Square brackets hold non-standard residues; d marks the D form. Peptide text beside a SMILES is read from it. Gly(N(CH2)2(3-indolyl)) = O=C(O)CNCCc1c[nH]c2ccccc12; Nspe = C[C@H](NCC(=O)O)c1ccccc1; Nphe = O=C(O)CNCc1ccccc1; Nlys = NCCCCNCC(=O)O
Recorded measurements of HPLC elution, one per entry
Numeric only. Scale: % MeCN

Recorded HPLC elution, per entry:
[[record]]
molecule = "C[C@@H](c1ccccc1)N(CC(=O)N(CCCCN)CC(=O)N(CC(=O)N(CC(=O)N(CCCCN)CC(=O)N(CCc1c[nH]c2ccccc12)CC(=O)N(CCc1c[nH]c2ccccc12)CC(N)=O)[C@@H](C)c1ccccc1)[C@@H](C)c1ccccc1)C(=O)CN(CCCCN)C(=O)CN(CCCCN)C(=O)CN(C(=O)CN(C(=O)CNCCCCN)[C@@H](C)c1ccccc1)[C@@H](C)c1ccccc1 [peptoid 30] (H-[Nlys][Nspe][Nspe][Nlys][Nlys][Nspe][Nlys][Nspe][Nspe][Nlys][Gly(N(CH2)2(3-indolyl))][Gly(N(CH2)2(3-indolyl))]-NH2)"
value_unit = "% MeCN"
test_value = 48.8

[[record]]
molecule = "C[C@@H](c1ccccc1)N(CC(N)=O)C(=O)CN(C(=O)CN(CCCCN)C(=O)CN(C(=O)CN(C(=O)CN(CCCCN)C(=O)CN(CCc1c[nH]c2ccccc12)C(=O)CN(C(=O)CN(CCCCN)C(=O)CN(C(=O)CN(C(=O)CNCCCCN)[C@@H](C)c1ccccc1)[C@@H](C)c1ccccc1)[C@@H](C)c1ccccc1)[C@@H](C)c1ccccc1)[C@@H](C)c1ccccc1)[C@@H](C)c1ccccc1"
value_unit = "% MeCN"
test_value = 54.6

[[record]]
molecule = "C[C@@H](c1ccccc1)N(CC(=O)N(CCCCN)CC(=O)N(CC(=O)N(CC(=O)N(CCCCN)CC(=O)N(CC(=O)N(CC(=O)N(CCCCN)CC(=O)N(CC(=O)N(CC(=O)N(CCCCN)CC(=O)N(CCCCN)CC(N)=O)[C@@H](C)c1ccccc1)[C@@H](C)c1ccccc1)[C@@H](C)c1ccccc1)[C@@H](C)c1ccccc1)[C@@H](C)c1ccccc1)[C@@H](C)c1ccccc1)C(=O)CNCCc1c[nH]c2ccccc12 [peptoid 61] (H-[Gly(N(CH2)2(3-indolyl))][Nspe][Nlys][Nspe][Nspe][Nlys][Nspe][Nspe][Nlys][Nspe][Nspe][Nlys][Nlys]-NH2)"
value_unit = "% MeCN"
test_value = 51.2

[[record]]
molecule = "C[C@@H](c1ccccc1)N(CC(N)=O)C(=O)CN(C(=O)CN(CCCCN)C(=O)CN(C(=O)CN(C(=O)CN(CCCCN)C(=O)CN(CCc1c[nH]c2ccccc12)C(=O)CN(CCCCN)C(=O)CN(CCCCN)C(=O)CN(C(=O)CN(C(=O)CNCCCCN)[C@@H](C)c1ccccc1)[C@@H](C)c1ccccc1)[C@@H](C)c1ccccc1)[C@@H](C)c1ccccc1)[C@@H](C)c1ccccc1"
value_unit = "% MeCN"
test_value = 49.5


HPLC elution for C[C@@H](c1ccccc1)N(CC(=O)N(CCCCN)CC(=O)N(CC(=O)N(CC(=O)N(CCCCN)CC(=O)N(CC(=O)N(CC(=O)N(CCCCN)CC(=O)N(CC(=O)N(CC(N)=O)Cc1ccccc1)Cc1ccccc1)[C@@H](C)c1ccccc1)[C@@H](C)c1ccccc1)[C@@H](C)c1ccccc1)[C@@H](C)c1ccccc1)C(=O)CN(C(=O)CNCCCCN)[C@@H](C)c1ccccc1 [peptoid 44] (H-[Nlys][Nspe][Nspe][Nlys][Nspe][Nspe][Nlys][Nspe][Nspe][Nlys][Nphe][Nphe]-NH2) is 53.1

All values here come from paper PMC10460844.
